Target: human NAMPT (Homo sapiens)
Sequence (P43490 whole entry): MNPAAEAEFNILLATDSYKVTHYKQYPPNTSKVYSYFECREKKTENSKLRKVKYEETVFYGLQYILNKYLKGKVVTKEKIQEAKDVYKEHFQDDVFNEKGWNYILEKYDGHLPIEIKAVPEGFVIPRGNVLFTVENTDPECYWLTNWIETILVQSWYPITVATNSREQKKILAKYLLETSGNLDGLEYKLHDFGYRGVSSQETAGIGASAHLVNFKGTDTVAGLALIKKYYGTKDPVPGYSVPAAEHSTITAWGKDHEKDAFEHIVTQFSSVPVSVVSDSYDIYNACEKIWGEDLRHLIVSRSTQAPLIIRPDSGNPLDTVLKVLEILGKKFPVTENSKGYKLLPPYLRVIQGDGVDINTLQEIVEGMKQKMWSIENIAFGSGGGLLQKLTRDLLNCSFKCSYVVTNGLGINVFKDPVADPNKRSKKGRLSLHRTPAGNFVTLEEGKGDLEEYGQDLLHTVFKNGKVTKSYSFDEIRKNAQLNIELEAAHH
Assay: Human recombinant enzyme assay (NMN fluorescence biochemical assay, activation of NAMPT)
Details: Table A; human recombinant NAMPT, NMN formation, 60 min; read-out: EC50 Human
PROPERTY MEASURED: EC50 (µM)

- COMPOUND: "Cc1ccccc1C(=O)N1CC[C@]2(C1)C[C@@H](NC(=O)NCc1ccc(Cl)cc1)C2"
  PROPERTY MEASURED: "EC50"
  UNIT: "µM"
  MEASURED NUMBER: 21.7
- COMPOUND: "CC1CCC(=O)N1CC1CC2(C1)CC(NC(=O)NCc1ccc(Cl)cc1)C2 (centres unmarked)"
  PROPERTY MEASURED: "EC50"
  UNIT: "µM"
  MEASURED NUMBER: 5.7
- COMPOUND: "COc1ccc(CNC(=O)NC2CC3(C2)CC(C(=O)N2CCN(Cc4cnn(C)c4)CC2)C3)cc1 (centres unmarked)"
  PROPERTY MEASURED: "EC50"
  UNIT: "µM"
  MEASURED NUMBER: 51.5
- COMPOUND: "Cc1cc(C(=O)N2CC[C@]3(C2)C[C@@H](NC(=O)NCc2ccc(Cl)cc2)C3)ccn1"
  PROPERTY MEASURED: "EC50"
  UNIT: "µM"
  MEASURED NUMBER: 42.6
- COMPOUND: "COc1ccc(CNC(=O)NC2CC3(C2)CN(C(=O)Cc2ccccc2C)C3)cc1"
  PROPERTY MEASURED: "EC50"
  UNIT: "µM"
  MEASURED NUMBER: 42.2
- COMPOUND: "O=C(NCCCCCNC(=O)c1ccccn1)NCc1ccc(Cl)cc1"
  PROPERTY MEASURED: "EC50"
  UNIT: "µM"
  MEASURED NUMBER: 11.8
- COMPOUND: "O=C(NCc1ccc(Cl)cc1)NC1CC2(C1)CN(S(=O)(=O)c1ccccc1Cl)C2"
  PROPERTY MEASURED: "EC50"
  UNIT: "µM"
  MEASURED NUMBER: 20.9
- COMPOUND: "CC(C)(C)OC(=O)N1CCC2(CC1)CC2CNC(=O)NCc1ccc(C(N)=O)cc1 (centres unmarked)"
  PROPERTY MEASURED: "EC50"
  UNIT: "µM"
  MEASURED NUMBER: 19.8

[1] COc1ccc(CNC(=O)NC2CC3(C2)CC(OCc2cccnc2)C3)cc1 (centres unmarked)
[2] COc1ccc(CNC(=O)NC2CC3(C2)CC(C(=O)N[C@@H]2CCc4ccccc4C2)C3)cc1 (some centres unmarked)
Could you kindly indicate whether 1 or 2 has the higher EC50 value? Write down the label attached to your selection.
1
(1: 38.7 µM, 2: 4.1 µM)

[1] COc1ccc(CNC(=O)NC2CC3(C2)CC(Oc2cccnc2)C3)cc1 (centres unmarked)
[2] COc1ccc(CNC(=O)NC2CC3(C2)CN(C(=O)c2cccc(N(C)C)c2)C3)cc1
Compare EC50: is it lower for 1 or for 2 ? Write down the label attached to your selection.
2

[I] CC(C)(C)OC(=O)NC1CCC(NC(=O)NCc2ccc(C(N)=O)cc2)CC1 (centres unmarked)
[II] [2H]C([2H])(NC(=O)NCCCCC1CCN(C(=O)c2ccccc2)CC1)c1cnco1
[III] COc1ccc(CNC(=O)NC2CC3(CC(CN4CCc5ccccc54)C3)C2)cc1 (centres unmarked)
[IV] O=C(NCCCCCC(=O)N1CCOCC1)NCc1ccc(Cl)cc1
Sort ascending by EC50. Record the ranking as a list of labels in the requested order.
II, III, I, IV
(II: 1.9 µM, III: 20.8 µM, I: 40 µM, IV: 59.4 µM)

[P] COc1ccc(C(=O)N2CC[C@]3(C2)C[C@H](NC(=O)NCc2ccc(Cl)cc2)C3)cc1
[Q] COc1cccc(C(=O)NC2CC3(CC(NC(=O)NCc4ccc(Cl)cc4)C3)C2)c1 (centres unmarked)
Could you kindly indicate whether P or Q has the higher EC50 value? Write down the label attached to your selection.
P
